target.system: Fyn (UniProt P06241)
Sequence (P06241 whole entry, looked up): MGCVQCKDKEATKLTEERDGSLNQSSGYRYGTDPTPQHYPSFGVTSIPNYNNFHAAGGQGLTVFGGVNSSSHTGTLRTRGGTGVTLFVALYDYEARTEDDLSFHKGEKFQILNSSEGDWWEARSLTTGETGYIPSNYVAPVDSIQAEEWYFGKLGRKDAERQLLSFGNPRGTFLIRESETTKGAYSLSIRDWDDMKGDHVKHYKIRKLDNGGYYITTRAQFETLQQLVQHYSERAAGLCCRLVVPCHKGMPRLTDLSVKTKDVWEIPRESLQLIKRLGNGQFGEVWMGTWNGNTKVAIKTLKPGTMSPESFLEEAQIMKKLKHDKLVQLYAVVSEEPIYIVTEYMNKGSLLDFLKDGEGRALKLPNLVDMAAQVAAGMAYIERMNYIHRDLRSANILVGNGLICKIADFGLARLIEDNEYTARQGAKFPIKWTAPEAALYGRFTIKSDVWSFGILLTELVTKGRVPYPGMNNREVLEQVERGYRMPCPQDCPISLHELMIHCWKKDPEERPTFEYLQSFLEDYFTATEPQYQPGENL
run.description: phosphorylation enrichment, bacterial display (enrichment ratio); higher = better substrate or ligand; peptides without Tyr show the background;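 note: 11-residue human phosphosite peptides and single-mutation variants displayed on the E. coli surface, counted by deep sequencing, each peptide's frequency after selection divided by its frequency in the unselected input library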;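 note: frequency after pTyr selection over input frequency; kinase dosed for 20-30% of maximal phosphorylation in three min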
quantity.measured: phosphorylation enrichment
// print number alone

DENCFYTRAAS [RPS19_Y54_W52C] :: 0.569
LTFHMYADPNF [SOS1_Y618_YF] :: 0.577
LTSKPYAFTAR [NDUFS1_Y236] :: 0.722
QNTGVYFDLFG [PTPN11_Y62_D61V_YF] :: 3.82
AVSEGYKDFRA [CDA_Y79] :: 0.441
SSWPDYVRPLP [HSPB1_Y54_G53D] :: 0.442

Let's switch to this sequence now.
# input Find phosphorylation enrichment (Fyn (UniProt P06241)) for the entry VVHSSYDEIEG [SEC24A_Y263]
# output 0.498
